target: hERG potassium channel (Homo sapiens (Human)); assay: hERG potassium channel current, automatic patch clamp; format: cell-based; conditions: human, mammalian cells expressing hERG potassium channel; 10 μM
Sequence (Q12809 whole entry): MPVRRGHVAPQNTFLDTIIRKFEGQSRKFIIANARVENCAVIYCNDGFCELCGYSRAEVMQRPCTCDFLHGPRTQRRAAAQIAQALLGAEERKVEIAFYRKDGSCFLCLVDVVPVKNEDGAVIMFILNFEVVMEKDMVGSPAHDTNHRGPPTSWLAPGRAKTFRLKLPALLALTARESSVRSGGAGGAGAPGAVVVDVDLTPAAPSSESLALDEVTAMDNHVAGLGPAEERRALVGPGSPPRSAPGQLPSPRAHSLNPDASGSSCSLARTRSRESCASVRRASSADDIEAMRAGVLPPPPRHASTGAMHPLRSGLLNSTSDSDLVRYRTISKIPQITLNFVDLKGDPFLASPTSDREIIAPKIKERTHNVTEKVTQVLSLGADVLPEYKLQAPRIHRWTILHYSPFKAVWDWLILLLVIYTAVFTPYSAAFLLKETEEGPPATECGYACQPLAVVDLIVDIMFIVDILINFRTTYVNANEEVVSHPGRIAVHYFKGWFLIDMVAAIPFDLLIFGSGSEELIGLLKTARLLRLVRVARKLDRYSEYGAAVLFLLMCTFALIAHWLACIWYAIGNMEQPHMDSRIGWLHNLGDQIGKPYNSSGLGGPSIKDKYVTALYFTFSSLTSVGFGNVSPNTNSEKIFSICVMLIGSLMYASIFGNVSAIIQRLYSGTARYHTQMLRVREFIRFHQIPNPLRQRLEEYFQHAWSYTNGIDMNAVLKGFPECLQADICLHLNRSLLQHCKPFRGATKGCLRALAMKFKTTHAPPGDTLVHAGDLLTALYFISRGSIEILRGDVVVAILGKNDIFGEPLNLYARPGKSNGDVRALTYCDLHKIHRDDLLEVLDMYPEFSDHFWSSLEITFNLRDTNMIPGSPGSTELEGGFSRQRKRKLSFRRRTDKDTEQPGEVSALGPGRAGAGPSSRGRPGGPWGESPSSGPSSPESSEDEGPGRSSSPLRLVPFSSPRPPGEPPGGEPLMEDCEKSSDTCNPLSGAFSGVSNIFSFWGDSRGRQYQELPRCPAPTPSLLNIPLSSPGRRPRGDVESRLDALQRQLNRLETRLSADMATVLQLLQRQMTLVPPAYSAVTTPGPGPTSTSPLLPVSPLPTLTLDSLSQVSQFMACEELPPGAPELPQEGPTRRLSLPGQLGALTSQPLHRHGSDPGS
Classify by measured inhibition at 5 min, 10 µM: 1.0 if it is equal to or exceeds 40%, 0.0 if it is smaller.

In [3]: df
Out[3]:
                                   molecule  label_class
0  NCCCCN(Cc1nccc2c3ccccc3n(CCCN)c12)[C@H]1CCCc2cccnc21 [drawing 827]          1.0
1  O=C(O)Cn1c2ccccc2c2ccnc(CN(CCCN3CCNCC3)[C@H]3CCCc4cccnc43)c21 [drawing 828]          0.0
2  NCCCCN(Cc1nccc2c3ccccc3n(CCN3CCNCC3)c12)[C@H]1CCCc2cccnc21 [drawing 829]          1.0
3  NCCCCN(Cc1nccc2c3ccccc3n(CC(=O)N3CCOCC3)c12)[C@H]1CCCc2cccnc21 [drawing 819]          1.0
4  O=C(Cn1c2ccccc2c2ccnc(CN(CCCN3CCNCC3)[C@H]3CCCc4cccnc43)c21)C1CCOCC1          0.0
5  NCCCCN(Cc1nccc2c3ccccc3n(CC(=O)NC3CCNCC3)c12)C1CCCc2cccnc21 (stereo not shown) [drawing 821]          0.0
